Test: Clinical Trial II: sputum and plasma aztreonam concentrations
Assay type: in vivo
Conditions: human, sputum, inhaled, 75 mg, sputum aztreonam concentration, median (range), 10 minutes postdose, Day 14
assay_readout: concentration at 10 min (ng/g)

C[C@H]1[C@H](NC(=O)/C(=N\OC(C)(C)C(=O)O)c2csc(N)n2)C(=O)N1S(=O)(=O)O :: 677000

###

Test: Clinical Trial II: sputum and plasma aztreonam concentrations
Format: in vivo
Settings: human, sputum, inhaled, 75 mg, sputum aztreonam concentration, median (range), 10 minutes postdose, Day 28
assay_readout: concentration at 10 min

C[C@H]1[C@H](NC(=O)/C(=N\OC(C)(C)C(=O)O)c2csc(N)n2)C(=O)N1S(=O)(=O)O [aztreonam] :: 451000 ng/g
